Assign Relative phosphorylation (% of highest signal) to each entry below.
target: ABL1 (Homo sapiens); assay: PamChip microarray peptide phosphorylation; conditions: peptide substrate phosphorylated by ABL1
Sequence (P00519 whole entry): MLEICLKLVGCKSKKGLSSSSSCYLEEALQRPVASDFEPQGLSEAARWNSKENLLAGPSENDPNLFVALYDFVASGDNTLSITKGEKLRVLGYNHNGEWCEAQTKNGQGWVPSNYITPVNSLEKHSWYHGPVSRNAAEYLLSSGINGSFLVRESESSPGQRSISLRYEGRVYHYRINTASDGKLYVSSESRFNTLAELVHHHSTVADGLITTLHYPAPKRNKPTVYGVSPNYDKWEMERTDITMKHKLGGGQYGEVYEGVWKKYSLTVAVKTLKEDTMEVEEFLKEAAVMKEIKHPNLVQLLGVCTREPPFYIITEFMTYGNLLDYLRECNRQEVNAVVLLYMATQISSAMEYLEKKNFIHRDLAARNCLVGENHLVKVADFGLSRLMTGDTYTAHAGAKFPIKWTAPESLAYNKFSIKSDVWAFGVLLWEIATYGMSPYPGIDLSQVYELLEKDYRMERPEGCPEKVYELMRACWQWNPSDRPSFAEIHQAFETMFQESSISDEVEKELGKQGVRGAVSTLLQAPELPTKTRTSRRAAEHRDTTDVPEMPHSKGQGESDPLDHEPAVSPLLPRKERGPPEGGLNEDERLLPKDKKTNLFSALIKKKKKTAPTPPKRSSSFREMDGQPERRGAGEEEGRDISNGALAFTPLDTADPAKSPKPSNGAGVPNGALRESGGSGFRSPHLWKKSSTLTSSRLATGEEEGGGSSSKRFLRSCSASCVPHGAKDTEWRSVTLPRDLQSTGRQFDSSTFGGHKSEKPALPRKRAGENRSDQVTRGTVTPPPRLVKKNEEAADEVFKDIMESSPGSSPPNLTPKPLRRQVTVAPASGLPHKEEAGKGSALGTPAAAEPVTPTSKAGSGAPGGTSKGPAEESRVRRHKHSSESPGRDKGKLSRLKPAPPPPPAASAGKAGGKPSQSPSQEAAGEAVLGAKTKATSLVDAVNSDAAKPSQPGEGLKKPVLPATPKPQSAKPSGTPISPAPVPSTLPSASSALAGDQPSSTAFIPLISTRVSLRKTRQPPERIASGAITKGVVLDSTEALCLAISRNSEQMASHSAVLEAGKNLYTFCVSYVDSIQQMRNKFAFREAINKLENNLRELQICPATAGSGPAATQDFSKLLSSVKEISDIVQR

stdin: Entry under review: STAT4_686_698 (TERGDKGYVPSVF; UniProt Q14765 686-698, looked up, fragment) . Reported Relative phosphorylation (% of highest signal)?
stdout: -0.7 % of highest signal

stdin: Please give the measured Relative phosphorylation (% of highest signal) for this substance: VGFR3_1061_1073 (DIYKDPDYVRKGS; UniProt P35916 1061-1073, looked up, fragment)
stdout: 2.9 % of highest signal

stdin: Could you share which Relative phosphorylation (% of highest signal) value was measured for VGFR1_1235_1247 (ATSMFDDYQGDSS; UniProt P17948 1235-1247, looked up, fragment) ?
stdout: -0.543 % of highest signal

stdin: # query: Relative phosphorylation (% of highest signal) of entry PERI_458_470 (QRSELDKSSAHSY; UniProt P41219 458-470, looked up, fragment)
stdout: -0.4 % of highest signal

stdin: I would be grateful if you could share the reported Relative phosphorylation (% of highest signal) for VGFR2_989_1001 (EEAPEDLYKDFLT; UniProt P35968 989-1001, looked up, fragment) .
stdout: 2.3 % of highest signal

stdin: Recorded Relative phosphorylation (% of highest signal) of VGFR2_1046_1058 (DFGLARDIYKDPD; UniProt P35968 1046-1058, looked up, fragment) , please.
stdout: -0.11 % of highest signal

stdin: Param item = VGFR1_1206_1218 (GSSDDVRYVNAFK; UniProt P17948 1206-1218, looked up, fragment) ; retrieve measured Relative phosphorylation (% of highest signal).
stdout: 0.0233 % of highest signal

stdin: For the substance NTRK2_509_521 (PVIENPQYFGITN; UniProt Q16620 509-521, looked up, fragment) , what Relative phosphorylation (% of highest signal) is on record?
stdout: -0.0217 % of highest signal

stdin: What does the data say about its Relative phosphorylation (% of highest signal)? Entry: EPHA2_581_593 (QLKPLKTYVDPHT; UniProt P29317 581-593, looked up, fragment)
stdout: -0.273 % of highest signal

stdin: Entry EPHA4_921_933 (QAIKMDRYKDNFT; UniProt P54764 921-933, looked up, fragment) has what Relative phosphorylation (% of highest signal)?
stdout: -0.327 % of highest signal

stdin: Entry DDR1_506_518 (LLLSNPAYRLLLA; UniProt Q08345 506-518, looked up, fragment) has what Relative phosphorylation (% of highest signal)?
stdout: -1.4 % of highest signal

stdin: # input substance: VGFR2_1207_1219_C1208S (VSDPKFHYDNTAG; UniProt P35968 1207-1219, looked up, variant C1208S) ; wanted: its Relative phosphorylation (% of highest signal)
stdout: -0.742 % of highest signal

stdin: Consider the substance MK01_198_210 (IMLNSKGYTKSID; UniProt P28482 198-210, looked up, fragment) and give its measured Relative phosphorylation (% of highest signal).
stdout: -0.5 % of highest signal

stdin: Entry VGFR2_944_956 (RFRQGKDYVGAIP; UniProt P35968 944-956, looked up, fragment) : reported Relative phosphorylation (% of highest signal) = ?
stdout: -0.378 % of highest signal

stdin: Given VGFR1_1162_1174 (VQQDGKDYIPINA; UniProt P17948 1162-1174, looked up, fragment) , state its recorded Relative phosphorylation (% of highest signal).
stdout: -0.426 % of highest signal

Hey, just so you know, these numbers are from paper PMC7316778.
